Values compiled from ChEMBL document CHEMBL5608216.

Experiment: Cmax in Sprague-Dawley rat at 50 mg/kg, po administered as single dose and measured upto 48 hrs
Type: ADME, organism-based
Settings: in vivo
endpoint: Cmax (ng/mL)
Please reply with the bare figure in ng/mL and do not write the unit itself.

[in] Please report the measured Cmax for O=C(COc1ccc2c(=O)c3ccccc3oc2c1)NCC1CCOCC1
[out] 304

###

Experiment: Cytotoxicity against LPS-induced mouse BV-2 cells assessed as survival rate at 10 uM measured after 24 hrs by MTT assay relative to control
Type: toxicity, cell-based
Conditions: LPS-induced BV-2 cells, read-out: Survival
Give measured viability at 24 h, 10 µM for each item. Keep answers brief.
Please reply with the bare figure in % and do not write the unit itself.

[in] Please report the measured viability at 24 h, 10 µM for O=C(COc1ccc2c(=O)c3ccccc3oc2c1)NCc1ccccn1
[out] 69.1

[in] Please report the measured viability at 24 h, 10 µM for O=C(COc1ccc2c(=O)c3ccccc3oc2c1)NCCc1ccc(Cl)c(Cl)c1
[out] 41.1

[in] Please report the measured viability at 24 h, 10 µM for O=C(COc1ccc2c(=O)c3ccccc3oc2c1)NCc1ccc(Cl)cc1
[out] 40.4

[in] Please report the measured viability at 24 h, 10 µM for O=C(COc1ccc2c(=O)c3ccccc3oc2c1)NCc1ccncc1
[out] 102

###

Experiment: Tmax in Sprague-Dawley rat at 50 mg/kg, po administered as single dose and measured upto 48 hrs
Format: ADME, organism-based
Settings: in vivo
endpoint: Tmax (h)
Please reply with the bare figure in h and do not write the unit itself.

[in] Please report the measured Tmax for O=C(COc1ccc2c(=O)c3ccccc3oc2c1)NCC1CCOCC1
[out] 12

###

Assay: Cytotoxicity against LPS-induced mouse BV-2 cells assessed as survival rate at 10 uM measured after 24 hrs by MTT assay relative to control
Type: toxicity, cell-based
Details: LPS-induced BV-2 cells, read-out: Survival
endpoint: viability at 24 h, 10 µM (%)
Please reply with the bare figure in % and do not write the unit itself.

[in] Please report the measured viability at 24 h, 10 µM for COc1ccc(CCNC(=O)COc2ccc3c(=O)c4ccccc4oc3c2)cc1
[out] 54.4

[in] Please report the measured viability at 24 h, 10 µM for CN1CCN(c2ccc(NC(=O)COc3ccc4c(=O)c5ccccc5oc4c3)nc2)CC1
[out] 86

[in] Please report the measured viability at 24 h, 10 µM for O=c1c2ccccc2oc2ccccc12 [XANTHONE]
[out] 95.4

[in] Please report the measured viability at 24 h, 10 µM for O=C(COc1ccc2c(=O)c3ccccc3oc2c1)NCCc1ccc(Cl)cc1
[out] 38.5

[in] Please report the measured viability at 24 h, 10 µM for O=C(COc1ccc2c(=O)c3ccccc3oc2c1)NCC1CCOCC1
[out] 105

[in] Please report the measured viability at 24 h, 10 µM for Cc1ccc(CCNC(=O)COc2ccc3c(=O)c4ccccc4oc3c2)cc1
[out] 47.9

[in] Please report the measured viability at 24 h, 10 µM for O=C(COc1ccc2c(=O)c3ccccc3oc2c1)NCCc1ccccc1
[out] 96.4

[in] Please report the measured viability at 24 h, 10 µM for O=C(COc1ccc2c(=O)c3ccccc3oc2c1)NC[C@@H](O)c1ccccc1
[out] 100

[in] Please report the measured viability at 24 h, 10 µM for O=C(COc1ccc2c(=O)c3ccccc3oc2c1)N1CCNCC1
[out] 101

[in] Please report the measured viability at 24 h, 10 µM for O=C(COc1ccc2c(=O)c3ccccc3oc2c1)NCc1ccccc1
[out] 79

[in] Please report the measured viability at 24 h, 10 µM for O=C(COc1ccc2c(=O)c3ccccc3oc2c1)Nc1cccnc1
[out] 91.9

[in] Please report the measured viability at 24 h, 10 µM for O=C(COc1ccc2c(=O)c3ccccc3oc2c1)NC1CCOCC1
[out] 80.6

[in] Please report the measured viability at 24 h, 10 µM for O=C(COc1ccc2c(=O)c3ccccc3oc2c1)NCc1ccc(F)cc1
[out] 82.8

[in] Please report the measured viability at 24 h, 10 µM for O=C(COc1ccc2c(=O)c3ccccc3oc2c1)N1CCOCC1
[out] 108

[in] Please report the measured viability at 24 h, 10 µM for O=C(COc1ccc2c(=O)c3ccccc3oc2c1)NCc1cccnc1
[out] 75.4

[in] Please report the measured viability at 24 h, 10 µM for CN1CCN(C(=O)COc2ccc3c(=O)c4ccccc4oc3c2)CC1
[out] 91.6

[in] Please report the measured viability at 24 h, 10 µM for O=C(COc1ccc2c(=O)c3ccccc3oc2c1)Nc1ccccn1
[out] 87.4

[in] Please report the measured viability at 24 h, 10 µM for CCC(NC(=O)COc1ccc2c(=O)c3ccccc3oc2c1)c1ccccn1 (stereo not drawn)
[out] 98.5

[in] Please report the measured viability at 24 h, 10 µM for O=C(COc1ccc2c(=O)c3ccccc3oc2c1)NCc1cccc(F)c1
[out] 97.2

[in] Please report the measured viability at 24 h, 10 µM for O=C(COc1ccc2c(=O)c3ccccc3oc2c1)Nc1ccncc1
[out] 108

[in] Please report the measured viability at 24 h, 10 µM for O=C(COc1ccc2c(=O)c3ccccc3oc2c1)N(Cc1ccccc1)Cc1ccccc1
[out] 99.7

[in] Please report the measured viability at 24 h, 10 µM for O=C(COc1ccc2c(=O)c3ccccc3oc2c1)NCc1ccc(Cl)c(Cl)c1
[out] 54.6

[in] Please report the measured viability at 24 h, 10 µM for O=C(COc1ccc2c(=O)c3ccccc3oc2c1)NCc1ccccc1F
[out] 84.6
